test-system: E. coli ClpP (Escherichia coli, UniProt P0A6G7)
Construct: His-tag; made in house; host or cells: E. coli SG1146a
Sequence (P0A6G7 15-207): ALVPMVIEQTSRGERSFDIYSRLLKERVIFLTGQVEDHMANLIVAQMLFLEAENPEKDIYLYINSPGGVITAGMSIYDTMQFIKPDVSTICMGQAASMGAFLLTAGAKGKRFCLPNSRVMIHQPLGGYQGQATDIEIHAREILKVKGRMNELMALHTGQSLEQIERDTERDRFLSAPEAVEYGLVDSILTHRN
assay-comment: Fluorescence-based E. coli ClpP proteolytic activity assay (Suc-LY-AMC), primary screen and dose-response
Type: biochemical
applied-conditions: read-out: E. coli ClpP inhibition [%] in the primary screen, primary screen, 200 µM
# inhibition at 200 µM annotations
Numeric only. Scale: %

Sample records with inhibition at 200 µM:
[
  {
    "structure": "O=c1oc(Cl)c(Cl)c2ccccc12",
    "observed-result": 98.9
  },
  {
    "structure": "CO[C@H]1/C=C/O[C@@]2(C)Oc3c(C)c(O)c4c(O)c(c(/C=N/N5CCN(C6CCCC6)CC5)c(O)c4c3C2=O)NC(=O)/C(C)=C\\C=C\\[C@H](C)[C@H](O)[C@@H](C)[C@@H](O)[C@@H](C)[C@H](OC(C)=O)[C@@H]1C",
    "observed-result": 71.5
  }
]

Here is the next item to consider.
Input line: Name the recorded inhibition at 200 µM for O=C(/C=C/c1ccc(O)cc1)CC(=O)/C=C/c1ccc(O)cc1 .
Output line: 76.5

Data provenance: paper PMC6600665
